Tested on: Male Wistar albino rats, alcohol induced sub-acute hepatotoxicity
protocol_description: Alcohol induced sub-acute hepatotoxicity in rats: evaluation of hepato-protective activity (% protection, % synergism)
Format: in vivo
condition_summary: sugar alcohol or sugar alone at 1%, alcohol 2.5 g/kg p.o. one month
Assign class by GSH % Prot.: not lower than 6% means satisfied; lower than 6% means not satisfied.

>  <molecule>
O=C[C@H](O)[C@@H](O)[C@H](O)CO

>  <class_label>
satisfied

$$$$
>  <molecule>
OC[C@H]1O[C@@H](O[C@H]2[C@H](O)[C@@H](O)C(O)O[C@@H]2CO)[C@H](O)[C@@H](O)[C@H]1O (some centres unmarked)

>  <class_label>
not satisfied

$$$$
>  <molecule>
OC[C@@H](O)[C@H](O)[C@@H](O)CO

>  <class_label>
satisfied

$$$$
>  <molecule>
OC[C@@H](O)[C@@H](O)CO

>  <class_label>
satisfied

$$$$

* * *

System: Male Wistar albino rats, alcohol induced sub-acute hepatotoxicity
protocol_description: Alcohol induced sub-acute hepatotoxicity in rats: evaluation of hepato-protective activity (% protection, % synergism)
Type: in vivo
condition_summary: sugar alcohol or sugar alone at 2.5%, alcohol 2.5 g/kg p.o. one month
Excerpt: • 1. Hepato-protection: the ability to reduce stress and prevent damage to the liver. • 2. Synergistic hepato-protective effect: where the net hepato-protective effect of a combination is greater than the sum of the hepato-protective effects of the parts. • 3. Primary hepato-protective agent; 18α-Glycyrrhizin, 18β-Glycyrrhizin, or a combination thereof. • 4. Complimentary hepato-protective agent: sugar, sugar alcohol, or a combination thereof. • 5. […]
quantity_name: TNF-α % Prot. (%)

>  <compound>
OC[C@H]1O[C@@](CO)(O[C@H]2O[C@H](CO)[C@@H](O)[C@H](O)[C@H]2O)[C@@H](O)[C@@H]1O

>  <assay_target>
Male Wistar albino rats, alcohol induced sub-acute hepatotoxicity

>  <units_symbol>
%

>  <endpoint_result>
14.18

$$$$
>  <compound>
O=C[C@H](O)[C@@H](O)[C@H](O)CO

>  <assay_target>
Male Wistar albino rats, alcohol induced sub-acute hepatotoxicity

>  <units_symbol>
%

>  <endpoint_result>
13.98

$$$$
>  <compound>
OC[C@@H](O)[C@@H](O)CO

>  <assay_target>
Male Wistar albino rats, alcohol induced sub-acute hepatotoxicity

>  <units_symbol>
%

>  <endpoint_result>
35.96

$$$$
>  <compound>
OC[C@H]1O[C@@H](O[C@H]2[C@H](O)[C@@H](O)C(O)O[C@@H]2CO)[C@H](O)[C@@H](O)[C@H]1O (some centres unmarked)

>  <assay_target>
Male Wistar albino rats, alcohol induced sub-acute hepatotoxicity

>  <units_symbol>
%

>  <endpoint_result>
15.26

$$$$
>  <compound>
OC[C@@H](O)[C@H](O)[C@@H](O)CO

>  <assay_target>
Male Wistar albino rats, alcohol induced sub-acute hepatotoxicity

>  <units_symbol>
%

>  <endpoint_result>
30.05

$$$$

* * *

Test system: Male Wistar albino rats, alcohol induced sub-acute hepatotoxicity
protocol_description: Alcohol induced sub-acute hepatotoxicity in rats: evaluation of hepato-protective activity (% protection, % synergism)
Format: in vivo
condition_summary: sugar alcohol or sugar alone at 1%, alcohol 2.5 g/kg p.o. one month
Catalogue of ALT etc % Prot. values

>  <molecule>
O=C[C@H](O)[C@@H](O)[C@H](O)CO

>  <ALT etc % Prot.>
8.06%

$$$$
>  <molecule>
OC[C@H]1O[C@@](CO)(O[C@H]2O[C@H](CO)[C@@H](O)[C@H](O)[C@H]2O)[C@@H](O)[C@@H]1O

>  <ALT etc % Prot.>
6.70%

$$$$
>  <molecule>
OC[C@H]1O[C@@H](O[C@H]2[C@H](O)[C@@H](O)C(O)O[C@@H]2CO)[C@H](O)[C@@H](O)[C@H]1O (some centres unmarked)

>  <ALT etc % Prot.>
8.21%

$$$$
>  <molecule>
OC[C@@H](O)[C@@H](O)CO

>  <ALT etc % Prot.>
17.84%

$$$$
>  <molecule>
OC[C@@H](O)[C@H](O)[C@@H](O)CO

>  <ALT etc % Prot.>
17.62%

$$$$

* * *

System: Male Wistar albino rats, alcohol induced sub-acute hepatotoxicity
protocol_description: Alcohol induced sub-acute hepatotoxicity in rats: evaluation of hepato-protective activity (% protection, % synergism)
Assay type: in vivo
condition_summary: sugar alcohol or sugar alone at 1%, alcohol 2.5 g/kg p.o. one month
Threshold-based label: MDA % Prot. under 8% gives t, MDA % Prot. not under 8% gives f.

>  <molecule>
OC[C@@H](O)[C@@H](O)CO

>  <class_label>
f

$$$$
>  <molecule>
O=C[C@H](O)[C@@H](O)[C@H](O)CO

>  <class_label>
t

$$$$
>  <molecule>
OC[C@H]1O[C@@H](O[C@H]2[C@H](O)[C@@H](O)C(O)O[C@@H]2CO)[C@H](O)[C@@H](O)[C@H]1O (some centres unmarked)

>  <class_label>
t

$$$$
>  <molecule>
OC[C@@H](O)[C@H](O)[C@@H](O)CO

>  <class_label>
f

$$$$
>  <molecule>
OC[C@H]1O[C@@](CO)(O[C@H]2O[C@H](CO)[C@@H](O)[C@H](O)[C@H]2O)[C@@H](O)[C@@H]1O

>  <class_label>
f

$$$$
